system: NCI-H647; assay: relative viability (nuclei count vs DMSO), 5 days (fraction); higher = more cells survive; settings: first compound 0.6325 µM
readout label: relative viability
Give only the figure.

API: value(readout=relative viability, system=NCI-H647) for record Cc1csc(=NC2CCCCC2)n1/N=C/c1ccc(O)c(O)c1O [MIM1] + CCNC(=O)c1noc(-c2cc(C(C)C)c(O)cc2O)c1-c1ccc(CN2CCOCC2)cc1 [Luminespib] (partner 0.01 µM)
0.271

Same question, CN1CCN(CCOc2cc(OC3CCOCC3)c3c(Nc4c(Cl)ccc5c4OCO5)ncnc3c2)CC1 [Saracatinib] + CC(=O)Nc1cccc(-n2c(=O)n(C3CC3)c(=O)c3c(Nc4ccc(I)cc4F)n(C)c(=O)c(C)c32)c1 [Trametinib] (partner 0.02 µM) this time
0.39

* * *

test system: NCI-H1563; assay: relative viability (nuclei count vs DMSO), 5 days (fraction); higher = more cells survive; details: first compound 0.02 µM
readout label: relative viability
Give only the figure.

Sample CCNC(=O)c1noc(-c2cc(C(C)C)c(O)cc2O)c1-c1ccc(CN2CCOCC2)cc1 [Luminespib] + Nc1nc2[nH]cc(CCc3ccc(C(=O)N[C@@H](CCC(=O)O)C(=O)O)cc3)c2c(=O)[nH]1 [Pemetrexed] (partner 0.2 µM) — what was its relative viability?
0.668

Same question, CCNC(=O)c1noc(-c2cc(C(C)C)c(O)cc2O)c1-c1ccc(CN2CCOCC2)cc1 [Luminespib] + COc1cc2c(Oc3ccc(NC(=O)C4(C(=O)Nc5ccc(F)cc5)CC4)cc3F)ccnc2cc1OCCCN1CCOCC1 [Foretinib] (partner 0.25 µM) this time
0.875

Same question, CCNC(=O)c1noc(-c2cc(C(C)C)c(O)cc2O)c1-c1ccc(CN2CCOCC2)cc1 [Luminespib] + CS(=O)(=O)CCNCc1ccc(-c2ccc3ncnc(Nc4ccc(OCc5cccc(F)c5)c(Cl)c4)c3c2)o1 [Lapatinib] (partner 2 µM) this time
0.616

Same question, CCNC(=O)c1noc(-c2cc(C(C)C)c(O)cc2O)c1-c1ccc(CN2CCOCC2)cc1 [Luminespib] + CS(=O)(=O)N1CCN(Cc2cc3nc(-c4cccc5[nH]ncc45)nc(N4CCOCC4)c3s2)CC1 [Pictilisib] (partner 1 µM) this time
0.616

Same question, CCNC(=O)c1noc(-c2cc(C(C)C)c(O)cc2O)c1-c1ccc(CN2CCOCC2)cc1 [Luminespib] + COc1cccc2cc(-c3nc([C@H]4CC[C@H](C(=O)O)CC4)n4ncnc(N)c34)[nH]c12 [OSI-027] (partner 0.5 µM) this time
0.585

Same question, CN1CCN(CCOc2cc(OC3CCOCC3)c3c(Nc4c(Cl)ccc5c4OCO5)ncnc3c2)CC1 [Saracatinib] + Nc1nc2[nH]cc(CCc3ccc(C(=O)N[C@@H](CCC(=O)O)C(=O)O)cc3)c2c(=O)[nH]1 [Pemetrexed] (partner 0.2 µM) this time
0.946

* * *

Assign relative viability to each entry below.
test system: NCI-H2405; assay: relative viability (nuclei count vs DMSO), 5 days (fraction); higher = more cells survive; settings: first compound 0.2 µM
Give only the figure.

Sample CN1CCN(CCOc2cc(OC3CCOCC3)c3c(Nc4c(Cl)ccc5c4OCO5)ncnc3c2)CC1 [Saracatinib] + Cc1nc(Nc2ncc(C(=O)Nc3c(C)cccc3Cl)s2)cc(N2CCN(CCO)CC2)n1 [Dasatinib] (partner 0.075 µM) — what was its relative viability?
0.223

Same question, CN1CCN(CCOc2cc(OC3CCOCC3)c3c(Nc4c(Cl)ccc5c4OCO5)ncnc3c2)CC1 [Saracatinib] + Cc1cc(Nc2cc(N3CCN(C)CC3)nc(Sc3ccc(NC(=O)C4CC4)cc3)n2)n[nH]1 [Tozasertib] (partner 0.1 µM) this time
0.661

Same question, CCNC(=O)c1noc(-c2cc(C(C)C)c(O)cc2O)c1-c1ccc(CN2CCOCC2)cc1 [Luminespib] + O=C(CCCCCCC(=O)Nc1ccccc1)NO [Vorinostat] (partner 1 µM) this time
0.165

Same question, Cc1csc(=NC2CCCCC2)n1/N=C/c1ccc(O)c(O)c1O [MIM1] + COc1cc2c(Oc3ccc(NC(=O)C4(C(=O)Nc5ccc(F)cc5)CC4)cc3F)ccnc2cc1OCCCN1CCOCC1 [Foretinib] (partner 0.25 µM) this time
1.05

Same question, CN1CCN(CCOc2cc(OC3CCOCC3)c3c(Nc4c(Cl)ccc5c4OCO5)ncnc3c2)CC1 [Saracatinib] + CC(C)C[C@H](NC(=O)[C@H](Cc1ccccc1)NC(=O)c1cnccn1)B(O)O [Bortezomib] (partner 0.002 µM) this time
0.749

Same question, Cc1csc(=NC2CCCCC2)n1/N=C/c1ccc(O)c(O)c1O [MIM1] + C[C@]1(O)C[C@@H](c2nc(-c3ccc4ccc(-c5ccccc5)nc4c3)c3c(N)nccn32)C1 [Linsitinib] (partner 1 µM) this time
0.906

Same question, Cc1csc(=NC2CCCCC2)n1/N=C/c1ccc(O)c(O)c1O [MIM1] + Nc1ncn([C@H]2C[C@H](O)[C@@H](CO)O2)c(=O)n1 [Decitabine] (partner 2 µM) this time
0.744

Same question, CN1CCN(CCOc2cc(OC3CCOCC3)c3c(Nc4c(Cl)ccc5c4OCO5)ncnc3c2)CC1 [Saracatinib] + O=C(c1cc(Cc2n[nH]c(=O)c3ccccc23)ccc1F)N1CCN(C(=O)C2CC2)CC1 [Olaparib] (partner 8 µM) this time
0.84

Same question, CCNC(=O)c1noc(-c2cc(C(C)C)c(O)cc2O)c1-c1ccc(CN2CCOCC2)cc1 [Luminespib] + Cc1nc(NC(=O)N2CCC[C@H]2C(N)=O)sc1-c1ccnc(C(C)(C)C(F)(F)F)c1 [Alpelisib] (partner 2 µM) this time
0.15

Same question, CCNC(=O)c1noc(-c2cc(C(C)C)c(O)cc2O)c1-c1ccc(CN2CCOCC2)cc1 [Luminespib] + O=C(c1cc(Cc2n[nH]c(=O)c3ccccc23)ccc1F)N1CCN(C(=O)C2CC2)CC1 [Olaparib] (partner 8 µM) this time
0.182

Same question, Cc1csc(=NC2CCCCC2)n1/N=C/c1ccc(O)c(O)c1O [MIM1] + CS(=O)(=O)CCNCc1ccc(-c2ccc3ncnc(Nc4ccc(OCc5cccc(F)c5)c(Cl)c4)c3c2)o1 [Lapatinib] (partner 2 µM) this time
1.13

Same question, CN1CCN(CCOc2cc(OC3CCOCC3)c3c(Nc4c(Cl)ccc5c4OCO5)ncnc3c2)CC1 [Saracatinib] + CC(=O)Nc1cccc(-n2c(=O)n(C3CC3)c(=O)c3c(Nc4ccc(I)cc4F)n(C)c(=O)c(C)c32)c1 [Trametinib] (partner 0.02 µM) this time
0.616

Same question, Cc1csc(=NC2CCCCC2)n1/N=C/c1ccc(O)c(O)c1O [MIM1] + Cc1nc(Nc2ncc(C(=O)Nc3c(C)cccc3Cl)s2)cc(N2CCN(CCO)CC2)n1 [Dasatinib] (partner 0.075 µM) this time
0.21

Same question, CCNC(=O)c1noc(-c2cc(C(C)C)c(O)cc2O)c1-c1ccc(CN2CCOCC2)cc1 [Luminespib] + CC(C)C[C@H](NC(=O)[C@H](Cc1ccccc1)NC(=O)c1cnccn1)B(O)O [Bortezomib] (partner 0.002 µM) this time
0.358

Same question, Cc1csc(=NC2CCCCC2)n1/N=C/c1ccc(O)c(O)c1O [MIM1] + CC1(C)CCC(c2ccc(Cl)cc2)=C(CN2CCN(c3ccc(C(=O)NS(=O)(=O)c4ccc(N[C@H](CCN5CCOCC5)CSc5ccccc5)c(S(=O)(=O)C(F)(F)F)c4)cc3)CC2)C1 [Navitoclax] (partner 0.5 µM) this time
0.946

Same question, CN1CCN(CCOc2cc(OC3CCOCC3)c3c(Nc4c(Cl)ccc5c4OCO5)ncnc3c2)CC1 [Saracatinib] + CC(=O)c1c(C)c2cnc(Nc3ccc(N4CCNCC4)cn3)nc2n(C2CCCC2)c1=O [Palbociclib] (partner 0.5 µM) this time
0.45
